Task for the reader: assign each of the following molecules its reported growth.
- Test system: MALME-3M melanoma
- experimental details: NCI-60 one-dose screen, 48 h (100 = growth as untreated, 0 = no growth, -100 = all killed)
- recorded conditions: 10 µM unless noted
Compounds without any hit were thinned out: in the full panel of roughly 83,000, 20% have a hit.
Answers are plain numbers, in %.

Q: Endpoint output: growth of COCCn1cc(-c2nc(-c3cc4cccnc4n3C)cs2)c2ccccc21 . Value?
Result: 70.7

Q: Endpoint output: growth of Cc1ccc(OCCOCCOCCOCCOCCOc2ccc(C)n(O)c2=S)c(=S)n1O . Value?
Result: 16.5

Q: Endpoint output: growth of COc1ccc(C(c2cc(OC)c(OC)c(OC)c2)N2CCCCC2)cc1 (stereo not drawn) . Value?
Result: 55.3

Q: Endpoint output: growth of CCCCO[C@@H]1C=C2[C@H]3CC(C)(C)C(=O)C[C@]3(C(=O)O[C@@H]3O[C@H](CO[C@@H]4O[C@H](CO)[C@@H](OC5OC(C)C(O)C(O)C5O)[C@H](O)[C@H]4O)[C@@H](O)[C@H](O)[C@H]3O)CC[C@@]2(C)[C@]2(C)CC[C@H]3C(C)(C)C(=O)CC[C@]3(C)[C@@H]12 (stereo partly drawn) . Value?
Result: 34.2

Q: Endpoint output: growth of CC1SC(c2ccccc2O)N(NC(=O)CCC(=O)c2nc3ncccc3[nH]2)C1=O (stereo not drawn) . Value?
Result: 94

Q: Endpoint output: growth of CC1(C)N=C(N)N=C(N)N1c1cc(Cl)ccc1Cl . Value?
Result: 125

// for each molecule in input: emit growth
1. CCOC(=O)c1[nH]cc2c1CCc1sc(Nc3ccccn3)nc1-2
2. COc1ccc(-c2cc(C(=O)N3N=C(c4ccc(N)cc4)CC3c3ccc(Cl)cc3)c3ccccc3n2)cc1 (stereo not drawn)

Result:
1: 108; 2: 79

---

Task for the reader: assign each of the following compounds its reported growth.
- Test system: TK-10 renal
- experimental details: NCI-60 one-dose screen, 48 h (100 = growth as untreated, 0 = no growth, -100 = all killed)
- recorded conditions: 10 µM unless noted
This is part of a sample that, as a whole, favours compounds with a hit. Of some 83,000 tested, about 20% had one in any assay.
Give bare numbers, in %.

A selection of reference data follows.
Q: Endpoint output: growth of COc1ccccc1/C=C/C(=O)Nc1ccc(F)cc1 . Value?
Result: 128

Q: Endpoint output: growth of CCN(CC)C(=O)CC1=C(C)/C(=C/c2[nH]c(-c3ccc[nH]3)cc2OC)N=C1C . Value?
Result: 28.2

Q: Endpoint output: growth of CN1c2ccccc2S(=O)(=O)n2c(SCC(=O)Nc3nc4ccc(F)cc4s3)nnc21 . Value?
Result: 130

Q: Endpoint output: growth of Nc1c(Cl)cc(/C=C2\C=Cc3ccccc32)cc1Cl . Value?
Result: 107

Q: Endpoint output: growth of COc1ccc(/C=C(\C(=O)NCc2cccnc2)S(=O)(=O)c2ccccc2)cc1OC . Value?
Result: 46.4

Q: Endpoint output: growth of COc1cc(Cc2cc(OC)c(O)c(OC)c2)cc(OC)c1O . Value?
Result: 107

// for each compound in input: emit growth
1. CN1CC(c2ccc(Br)cc2)C(C(=O)c2ccc(Br)cc2)C12C(=O)Nc1ccccc12 (stereo not given)
2. O=C(NCCCCCCNC(=O)OCc1ccc2c(Cl)cc(Cl)c(O)c2n1)OCc1ccc2c(Cl)cc(Cl)c(O)c2n1
3. O=C(Cc1ccc(/C=C/C(=O)c2ncc[nH]2)cc1)Nc1cc(F)c(F)c(F)c1
4. Nc1nc(N)c2c(n1)NC(c1cccc(Nc3ccnc4cc(C(F)(F)F)ccc34)c1)CC(c1ccc3c(c1)OCO3)=N2 (stereo not given)
5. OC1(c2ccccc2)c2ccccc2N(c2ccccc2)c2ccc(Cl)cc21 (stereo not given)
6. O=C(C[C@]1(O)C(=O)Nc2ccc(Br)cc21)c1ccco1

Result:
1: 92.1; 2: -90.3; 3: 87.5; 4: 90.1; 5: -95.5; 6: 125

// for each compound in input: emit growth
1. C=C1C(=O)O[C@H]2[C@H]1CC/C(COC(=O)NCc1ccc(Cn3c(=O)sn(-c4ccc(I)cc4)c3=O)cc1)=C\CC[C@@]1(C)O[C@@H]21
2. CCCCCc1ccc(S(=O)(=O)Nc2cc(-c3csc(NC(C)=O)n3)ccc2N2CCN(C)CC2)cc1
3. Nc1nc(N(Cc2ccccc2)c2ccccc2)c2cn[nH]c2n1

Result:
1. 79.9
2. 99.3
3. 92.2

// for each compound in input: emit growth
1. CCOC(=O)/C=C1\S/C(=N\Nc2cc(=O)[nH]c3ccc(Br)cc23)N(c2ccccc2)C1=O
2. CCN(CC)CCOc1ccc2ccc(=O)oc2c1
3. Cc1nn(-c2ccc([N+](=O)[O-])cc2)c2ncnc(N/N=C/c3ccccc3O)c12
4. O=C1c2cccnc2C(=O)c2c1c(C(=O)OCCc1ccccn1)c1ccccn21
5. COc1cc(/C=C/c2cn[nH]c2-c2ccc(C)cc2)cc(OC)c1OC

Result:
[90.8, 97.7, 35.5, -43.9, 66]

---

- Tested on: CCRF-CEM leukemia
- experimental details: NCI-60 one-dose screen, 48 h
- recorded conditions: 10 µM unless noted
Compounds without any hit were thinned out: in the full panel of roughly 83,000, 20% have a hit. Calls of active or inactive are those of the source. Rule for the calls: active = growth percent below 10; inactive = the rest.
Outcome (select one): active, inactive

See these solved cases before continuing.
Q: # fetch the recorded call for CN1c2ccccc2S(=O)(=O)n2c(SCC(=O)Nc3nc4ccc(F)cc4s3)nnc21 here
Result: inactive

Q: # fetch the recorded call for O=C(/C=C/C12c3ccccc3C(c3ccccc31)C1C(=O)NC(=O)C12)c1ccc(I)cc1 (stereo not given) here
Result: active

Q: # fetch the recorded call for CC(=O)N1N=C(c2ccc(Nc3nc(Nc4ccc(F)cc4)nc(Nc4ccc(F)cc4)n3)cc2)CC1c1ccc(N(C)C)cc1 (stereo not given) here
Result: active

Q: # fetch the recorded call for O=C(Nc1nc(Cl)nc(Nc2ccc(N3CCOCC3=O)cc2)n1)c1ccc(Cl)s1 here
Result: inactive

Q: # fetch the recorded call for CSc1ccc(N2C(=N)C(=S)N(c3ccc(C)cc3)C2=O)cc1 here
Result: inactive

Others:
Q: # fetch the recorded call for NCCCNc1nc2ccccc2c2c(=O)c3cc(Cl)ccc3sc12 here
Result: active

Q: # fetch the recorded call for O=C1/C(=C/c2cccc(Br)c2)COc2ccc(O)cc21 here
Result: active

Q: # fetch the recorded call for c1ccc2cc(Cn3cc(CSc4nc5ccccc5s4)nn3)ccc2c1 here
Result: inactive

Q: # fetch the recorded call for COc1ccc(/C=N/NC(=O)Cn2c(-c3ccc(S(C)(=O)=O)cc3)nc3ccccc32)cc1 here
Result: inactive

Q: # fetch the recorded call for CCCOC(=O)Nc1nc2ccc(SCC)cc2s1 here
Result: inactive

---

Task for the reader: assign each of the following compounds its reported growth.
- Tested on: SK-MEL-28 melanoma
- experimental details: NCI-60 one-dose screen, 48 h (100 = growth as untreated, 0 = no growth, -100 = all killed)
- recorded conditions: 10 µM unless noted
Compounds without any hit were thinned out: in the full panel of roughly 83,000, 20% have a hit. Activity calls are given as the source filed them. How the source made its calls: active means growth percent below 10; inactive means the rest.

Q: Endpoint output: growth of CN1C(=O)/C(=C/c2ccc(C(=O)Nc3ncc(Cc4cccc(C(F)(F)F)c4)s3)cc2)SC1=S . Value?
Result: 46.4% (inactive)

// for each compound in input: emit growth
1. Cc1ccc(-c2nc(SCC(=O)N3CCN(c4cc5c(cc4F)c(=O)c(C(=O)O)cn5C4CC4)CC3)nc(Cl)c2C#N)cc1
2. O=S(=O)(Nc1ccc2ccccc2c1)c1ccc(-c2cnc(C3CC3)o2)cc1
3. CN(C)Cc1ccc(NC(=O)c2cncc(C#Cc3cnc(N)c4ncccc34)c2)cc1C(F)(F)F

Result:
["106% (inactive)", "64.9% (inactive)", "-83.1% (active)"]

---

- System: HS 578T breast
- experimental details: NCI-60 one-dose screen, 48 h
- recorded conditions: 10 µM unless noted
- Description: Growth inhibition of the HS 578T human tumor cell line is measured as a screen for anti-cancer activity. Cells are grown in 96 well plates and exposed to the test compound for 48 hours. Compounds are tested at a single concentration, which is 10^-5 M for most compounds. The reported endpoint is percent growth (GI% or GIPRCNT), where numbers from 0 - 100% represent growth inhibition, and numbers from -100% - 0 represent cell death. For example, a value of 40 represents 60% growth inhibition. […]
The panel holds about 83,000 compounds, 20% with a hit somewhere; the sample as a whole holds those more often. Active and inactive are the calls of the source. The calls were made as follows: active = growth percent below 10; inactive = the rest.
Outcome (select one): active, inactive

Q: # fetch the recorded call for COCCn1cc(-c2csc(-c3c[nH]c4ccccc34)n2)c2cccnc21 here
Result: inactive

Q: # fetch the recorded call for O=C1C=CC2(O)OC/C(=C\c3ccccc3)C(O)=C2C1=O (centres undefined) here
Result: inactive

Q: # fetch the recorded call for C=C[C@@]1(C)CC(=O)[C@@H](C(C)(C)c2cn(C)c3ccc(Br)cc23)C[C@@H]1O[Si](C)(C)C(C)(C)C here
Result: inactive

Q: # fetch the recorded call for C#Cc1cccc(NC(=O)C2CCCCN2C(=O)CCl)c1 (centres undefined) here
Result: active

Q: # fetch the recorded call for CCOC(=O)C/C(=N\Nc1cc(=O)[nH]c2ccc(C)cc12)C(=O)OCC here
Result: inactive

Q: # fetch the recorded call for COc1cc(-c2ccc[nH]2)[nH]c1/C=C1\N=C(C)C(CC(=O)OCC(C)(C)C)=C1C here
Result: active

Q: # fetch the recorded call for O=C(/C=C/C12c3ccccc3C(c3ccccc31)C1C(=O)NC(=O)C12)c1ccco1 (centres undefined) here
Result: inactive

Q: # fetch the recorded call for O=C1/C(=C/c2ccc(Cl)cc2)CN(C(=O)C(Cl)Cl)C/C1=C\c1ccc(Cl)cc1 here
Result: active

We now examine a further compound.
Q: # fetch the recorded call for COc1ccc(-c2cc(-c3cn(-c4cccc(Cl)c4)nc3-c3ccc(OC)cc3)on2)cc1 here
Result: inactive
